Entries and their measured EC50 follow.
System: Human immunodeficiency virus 1
Test: Anti-HIV activity against HIV-1 IIIB infected in human C8166 cells assessed as inhibition of virus-induced cytopathic effect by MTT assay
Assay type: functional, organism-based
Conditions: Human immunodeficiency virus 1, IIIB
Dear colleague, please return just the value in nM, with no unit written.

Exercise: Field request: EC50 | item: COc1cccc2c1-c1c3c(c(OC)c4cc[n+]([O-])c(c14)C2=O)OCO3
Key: 2180

Exercise: Field request: EC50 | item: COc1cc(OC)c([N+](=O)[O-])c2c1-c1c3c(c(OC)c4c1[C@@H](C2)NCC4)OCO3
Key: 1930

Exercise: Field request: EC50 | item: COc1cc(OC)c2c(c1OC)C[C@H]1NCCc3cc4c(c-2c31)OCO4
Key: 5800
